System: Spodoptera litura
ASSAY: Antifeedant activity against Spodoptera litura in Ricinus communis leaves assessed as mean leaf area fed at 1 ug/cm'2 by dual choice leaf disc bioassay (reference value: 53 +/- 2.44 to 53.6 +/- 2.61 cm'2)
Format: functional
QUANTITY: Activity (cm2)
Your answer should be a plain number; it is taken to be in cm2.

For orientation, consider the following solved cases.
COc1cc(O)c2c(c1)C(=O)c1cc(C)cc(O)c1C2=O	33.4
C/C=C(\C)C(=O)O[C@H]1C[C@@H](OC(C)=O)[C@@]2(C(=O)OC)CO[C@H]3[C@@H](O)[C@@](C)([C@]45O[C@@]4(C)[C@H]4C[C@@H]5O[C@@H]5OC=C[C@@]54O)[C@H]4[C@]1(CO[C@]4(O)C(=O)OC)[C@@H]32	20.3
Cc1cc(O)c2c(c1)C(=O)c1cc(O)cc(O)c1C2=O	33.2
COc1c2c(c(O)c3c1C(=O)C1=C(C[C@H](C)O[C@@H]1C)C3=O)OCO2	25.2
COc1c2c(c(O)c3c1C(=O)c1coc(C)c1C3=O)OCO2	34.9
Cc1cc(O)c2c(c1)C(=O)c1cccc(O)c1C2=O	40.4

Name the reported Activity value associated with the compound COc1cc(OC)c2c(c1OC)C(=O)C1=C(C2=O)[C@@H](C)O[C@@H](C)C1
35.1

Query: Activity; subject: COc1c2c(c(OC)c3c1C(=O)C1=C(C3=O)[C@@H](C)O[C@@H](C)C1)OCO2
33.8
